TGI values for the compounds below.
Test system: DU-145 prostate
procedure summary: NCI tumour cell line growth inhibition, 48 h
*1 amine or outer side, *2 acyl side, *3 side chain or, on linkers, in order; H or OH if unused. Where a SMILES comes first, the peptide text is derived from it. [ ]: non-standard residue; d: D form. The star is where a group is joined. X31 = CC(=O)N(C)SCC(N[*:1])C(=O)[*:2]; Cbz = O=C(OCc1ccccc1)*; Bn = c1ccc(C*)cc1
measurement label: TGI

>  <compound>
CC(=O)N(C)SCC(NC(=O)C(Cc1ccccc1)NC(=O)OCc1ccccc1)C(=O)NC(Cc1ccccc1)C(=O)NC(Cc1c[nH]c2ccccc12)C(=O)NC(CCCCNC(=O)OCc1ccccc1)C(=O)NC(C(=O)NC(CSN(C)C(C)=O)C(=O)NC(C(N)=O)C(C)OCc1ccccc1)C(C)OCc1ccccc1 (configuration not stated) (Cbz-F[X31]FWK(Cbz)T(Bn)[X31]T(Bn)-NH2; configuration not given here)

>  <test system>
DU-145 prostate

>  <test result>
> 100 µM

$$$$
>  <compound>
COC1OC(COC(=O)c2cc(O)c(O)c(O)c2)C(OC(=O)c2cc(O)c(O)c(O)c2)C(OC(=O)c2cc(O)c(O)c(O)c2)C1OC(=O)c1cc(O)c(O)c(O)c1 (configuration not stated)

>  <test system>
DU-145 prostate

>  <test result>
> 100 µM

$$$$
>  <compound>
COc1cc2c(cc1OC)C(=O)/C(=C/c1cc(OC)c(OC)c(OC)c1)C2

>  <test system>
DU-145 prostate

>  <test result>
> 100 µM

$$$$
>  <compound>
COc1ccc(Nc2cc(C)nc(NCCCNc3ccnc4cc(Cl)ccc34)n2)cc1

>  <test system>
DU-145 prostate

>  <test result>
10.7 µM

$$$$
>  <compound>
CC(=O)Nc1nnc(S(C)(=O)=O)s1

>  <test system>
DU-145 prostate

>  <test result>
> 100 µM

$$$$
>  <compound>
CCN1Cc2nc3sc(C)c(C)c3c(=O)n2C=C1C

>  <test system>
DU-145 prostate

>  <test result>
23 µM

$$$$
>  <compound>
O=C(Nc1n[nH]c2nnc(-c3cccnc3)cc12)C1CC1

>  <test system>
DU-145 prostate

>  <test result>
> 25 µM

$$$$

----------
System: TK-10 renal
procedure summary: NCI tumour cell line growth inhibition, 48 h; in the data active means GI50 below about 0.43 µM; inactive means the rest
Classes used: active, inactive

>  <compound>
CCN1Cc2nc3sc(C)c(C)c3c(=O)n2C=C1C

>  <label class>
inactive

$$$$
>  <compound>
COc1ccc(-n2ccnc2-c2cc(OC)c(OC)c(OC)c2)cc1

>  <label class>
inactive

$$$$
>  <compound>
Oc1cc2ccccc2c(-c2c(O)c(O)cc3ccccc23)c1O

>  <label class>
inactive

$$$$
>  <compound>
O=C1OCC2=C1C(c1ccc(Cl)c(Cl)c1)c1cc3c(cc1N2CCO)CCC3 (stereo unspecified)

>  <label class>
active

$$$$
>  <compound>
COc1ccc(/C=C2\C=C(c3ccccc3)N(CCc3ccccc3)C2=O)cc1OC

>  <label class>
inactive

$$$$
>  <compound>
CCOc1cccc(-c2nc(N)nc(Nc3ccccc3SSc3ccccc3Nc3nc(N)nc(-c4cccc(OCC)c4)n3)n2)c1

>  <label class>
inactive

$$$$
>  <compound>
N#C[Se]CCCNS(=O)(=O)C1CC2C=CC1C2 (stereo unspecified)

>  <label class>
active

$$$$
>  <compound>
O=C1c2ccccc2-c2c1c1ccccc1c(=O)n2CCCNCCCCNCCCN1C(=O)c2ccccc2C2C(=O)c3ccccc3C21 (stereo unspecified)

>  <label class>
inactive

$$$$
>  <compound>
CCOC(=O)C(=O)/C(=C/N1C(=O)CC(=O)NC1=S)C(=O)OCC

>  <label class>
inactive

$$$$
>  <compound>
O=C(c1ccco1)c1c(C(F)(F)F)n([O-])c2ccc(Cl)cc2[n+]1=O

>  <label class>
active

$$$$
>  <compound>
COc1cc([C@@H]2C[C@H]2c2cc(SC)n[nH]2)cc(OC)c1OC

>  <label class>
inactive

$$$$
>  <compound>
COc1cc([N+](=O)[O-])c(OC)cc1-c1nc2sc(Cl)cn2c1/C=N/NC1=NCCN1

>  <label class>
inactive

$$$$
>  <compound>
CCCCCCCCCCCCOC1C(CNC(=O)C2OC3OC(C)(C)OC3C2NC(=O)Nc2ccc(CC(=O)NC(Cc3ccccc3)C(=O)O)cc2)OC2OC(C)(C)OC21 (stereo unspecified)

>  <label class>
inactive

$$$$
>  <compound>
COc1cc(-c2c(C#N)c(N)nc(N3CCOCC3)c2C#N)cc(OC)c1OC

>  <label class>
inactive

$$$$
>  <compound>
O=c1oc2ccc(Br)cc2c(=O)n1-c1ccc(I)cc1F

>  <label class>
inactive

$$$$
>  <compound>
Cc1ccc(Cl)c(Nc2ccccc2C(=O)O)c1Cl

>  <label class>
inactive

$$$$
>  <compound>
Cn1cc(C2=C(c3cn(C)c4ccccc34)C(=O)NC2=O)c2ccccc21

>  <label class>
inactive

$$$$
>  <compound>
CC(=O)OC1CC2C3CCC4C[C@@H](NC(=O)C=C(C)C)CC[C@]4(C)C3CC[C@]2(C)[C@H]1C(C)N(C)C (stereo partly specified)

>  <label class>
inactive

$$$$
>  <compound>
O=C(Nc1ccc(/C=C/c2ccc(NC(=O)c3cc(S(=O)(=O)O)c4cccnc4c3O)cc2S(=O)(=O)O)c(S(=O)(=O)O)c1)c1cc(S(=O)(=O)O)c2cccnc2c1O

>  <label class>
inactive

$$$$
>  <compound>
Clc1ccc(OCc2nnc3n2N=C(c2ccc(Cl)cc2Cl)CS3)cc1

>  <label class>
inactive

$$$$
>  <compound>
CCCCCCCCn1ccc2cc(NC(=O)Cn3cc(CN4CCCCC4)nn3)ccc21

>  <label class>
inactive

$$$$

----------
Test system: EKVX NSCLC
procedure summary: NCI tumour cell line growth inhibition, 48 h; in the data active means GI50 below about 0.43 µM; inactive means the rest
Possible outcomes: active, inactive

>  <molecule>
CCCCCCCCCCCCCCCCC(=O)O.CCCCCCCCCCCCCCCCCC(=O)O.CCCCCCCCCCCCCCCCCC(=O)O.CCCCCCCCCCCCCCCCCC(=O)O.CCCCCCCCCCCCCCCCCC(=O)O.CO[CH-]OC12COC1CC(O)C1(C)C(O)C(OC(C)O)C3=C(C)C(OC(=O)C(O)C([NH-])c4ccccc4)CC(O)(C(OC(=O)c4ccccc4)C21)C3(C)C.[Cu+].[Zn].[Zn].[Zn].[Zn].[Zn] (stereo not drawn)

>  <label class>
active

$$$$
>  <molecule>
Cn1c(NCC(O)CN2CCCC2)cc(=O)n(C)c1=O (stereo not drawn)

>  <label class>
inactive

$$$$
>  <molecule>
CN1CCN(Cc2ccc(NC(=O)c3cccc(C#Cc4cnc(N)c5ncccc45)c3F)cc2C(F)(F)F)CC1

>  <label class>
inactive

$$$$
>  <molecule>
COc1cc(C(=O)Nc2cc(OC)c3ccn(C)c3c2)cc2c1C[C@]1(C)CC[C@@H](O)C(C)(C)[C@H]1O2

>  <label class>
inactive

$$$$
>  <molecule>
CCCCCCCCCCCCOC1C(CNC(=O)C2OC3OC(C)(C)OC3C2NC(=O)Nc2ccc(CC(=O)NC(Cc3ccccc3)C(=O)O)cc2)OC2OC(C)(C)OC21 (stereo not drawn)

>  <label class>
inactive

$$$$
>  <molecule>
CN1C/C=C/CCOc2cccc(c2)-c2ccnc(n2)Nc2cccc(c2)C1

>  <label class>
active

$$$$
>  <molecule>
CC(=O)Oc1ccc(/C(=C(\C)c2ccc(Cl)cc2)c2ccc(OCCN3CCCCC3)cc2)cc1

>  <label class>
inactive

$$$$
>  <molecule>
COc1cc([C@@H]2C[C@H]2c2cc(SC)n[nH]2)cc(OC)c1OC

>  <label class>
inactive

$$$$
>  <molecule>
O=C(Nc1ccccc1)c1cc(S(=O)(=O)Nc2nc3ccccc3o2)c(SCc2ccccc2)cc1Cl

>  <label class>
inactive

$$$$
>  <molecule>
O=C(Nc1n[nH]c2nnc(-c3cccnc3)cc12)C1CC1

>  <label class>
inactive

$$$$
>  <molecule>
NC(N)=N/N=C/c1ccc(-c2ccc(-c3cc(Cl)cc(Cl)c3)s2)cc1

>  <label class>
inactive

$$$$
>  <molecule>
COc1cc(/C=C2\C[C@H]3[C@@H]4CC=C5C[C@@H](O)CC[C@]5(C)[C@H]4CC[C@]3(C)[C@H]2O)ccc1OCCCn1ccnc1

>  <label class>
inactive

$$$$
>  <molecule>
COc1ccc2nc3cc(Cl)ccc3c(Sc3ccc([N+](=O)[O-])cc3)c2c1

>  <label class>
inactive

$$$$
>  <molecule>
COc1cc(C(=O)N/N=C/c2ccc(N(C)C)cc2)cc(OC)c1OC

>  <label class>
inactive

$$$$
>  <molecule>
N#C[Se]CCCNS(=O)(=O)C1CC2C=CC1C2 (stereo not drawn)

>  <label class>
inactive

$$$$
>  <molecule>
O=C(Nc1ccc(/C=C/c2ccc(NC(=O)c3cc(S(=O)(=O)O)c4cccnc4c3O)cc2S(=O)(=O)O)c(S(=O)(=O)O)c1)c1cc(S(=O)(=O)O)c2cccnc2c1O

>  <label class>
inactive

$$$$
>  <molecule>
CN1CCN(c2ccc3nc(-c4ccc5nc(-c6ccc(O)cc6)[nH]c5c4)[nH]c3c2)CC1

>  <label class>
inactive

$$$$
>  <molecule>
O=C(c1ccco1)c1c(C(F)(F)F)n([O-])c2ccc(Cl)cc2[n+]1=O

>  <label class>
inactive

$$$$
